What follows is a collection of Kd values obtained with Protein-tyrosine kinase 2-beta (Homo sapiens).
Sequence (Q14289 whole entry): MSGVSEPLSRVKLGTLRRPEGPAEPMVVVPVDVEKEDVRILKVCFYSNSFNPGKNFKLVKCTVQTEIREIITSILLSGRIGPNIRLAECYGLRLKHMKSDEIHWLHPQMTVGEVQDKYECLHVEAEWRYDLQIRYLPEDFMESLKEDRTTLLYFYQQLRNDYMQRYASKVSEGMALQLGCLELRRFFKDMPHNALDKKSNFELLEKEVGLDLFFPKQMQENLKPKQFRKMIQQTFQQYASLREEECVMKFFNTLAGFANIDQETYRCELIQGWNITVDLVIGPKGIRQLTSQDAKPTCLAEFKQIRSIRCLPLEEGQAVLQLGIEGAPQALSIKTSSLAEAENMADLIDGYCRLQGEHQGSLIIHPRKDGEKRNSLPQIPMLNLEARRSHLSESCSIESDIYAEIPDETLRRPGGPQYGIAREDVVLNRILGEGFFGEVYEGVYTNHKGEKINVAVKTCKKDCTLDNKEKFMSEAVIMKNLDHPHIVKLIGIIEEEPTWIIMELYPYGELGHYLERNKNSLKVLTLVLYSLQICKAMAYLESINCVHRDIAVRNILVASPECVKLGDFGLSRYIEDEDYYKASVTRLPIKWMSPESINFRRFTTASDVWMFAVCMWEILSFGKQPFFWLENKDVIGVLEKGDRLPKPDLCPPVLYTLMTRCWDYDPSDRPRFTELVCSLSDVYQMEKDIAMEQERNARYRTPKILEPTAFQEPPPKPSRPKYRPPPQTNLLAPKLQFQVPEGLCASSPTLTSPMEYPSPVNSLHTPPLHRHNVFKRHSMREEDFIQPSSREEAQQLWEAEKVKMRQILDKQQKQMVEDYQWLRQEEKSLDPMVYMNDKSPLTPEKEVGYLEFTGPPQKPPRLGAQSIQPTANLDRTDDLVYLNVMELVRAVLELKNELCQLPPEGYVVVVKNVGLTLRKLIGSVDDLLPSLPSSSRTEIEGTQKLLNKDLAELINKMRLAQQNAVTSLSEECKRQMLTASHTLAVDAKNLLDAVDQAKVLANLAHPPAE
The source made the active and inactive calls.

| MOLECULE | Kd |
| --- | --- |
| C#Cc1cccc(Nc2ncnc3cc4c(cc23)OCCOCCOCCO4)c1 | > 30 µM (inactive) |

Challenge: Form field: reported Kd of "CNC(=O)c1ccc(Nc2ncc(C(F)(F)F)c(NCc3nccnc3N(C)S(C)(=O)=O)n2)cc1"
Response given: 0.423 µM (active)

Challenge: Form field: reported Kd of "CC1(COc2ccc3c(c2)ncn3-c2ccc3cccc(N4CCC(N)CC4)c3n2)COC1"
Response given: > 30 µM (inactive)

Challenge: Form field: reported Kd of "COc1cccc(Nc2ncnn3ccc(CN4CC[C@@H](N)[C@H](O)C4)c23)c1"
Response given: > 30 µM (inactive)

Challenge: Form field: reported Kd of COc1ccc(-c2ccc3ncc4c(c3c2)n(-c2ccc(N3CCNCC3)c(C(F)(F)F)c2)c(=O)n4C)cn1 [BGT-226 FREE BASE]
Response given: > 30 µM (inactive)

Challenge: Form field: reported Kd of "Cc1c(Cn2c(C)nc3c(C(=O)O)cc(N4CCOCC4)cc32)cccc1C(F)(F)F"
Response given: > 30 µM (inactive)

Challenge: Form field: reported Kd of "O=C(O)c1ccc2c(c1)nc(Nc1cccc(Cl)c1)c1ccncc12"
Response given: > 30 µM (inactive)

Challenge: Form field: reported Kd of "CN1CCN(c2nc(C3=C(c4c[nH]c5ccccc45)C(=O)NC3=O)c3ccccc3n2)CC1"
Response given: > 30 µM (inactive)

* * *

SYSTEM: Activin receptor type-1 (Homo sapiens, UniProt Q04771); further: in the data inactive means no Kd found up to 30 µM
Sequence (Q04771 whole entry): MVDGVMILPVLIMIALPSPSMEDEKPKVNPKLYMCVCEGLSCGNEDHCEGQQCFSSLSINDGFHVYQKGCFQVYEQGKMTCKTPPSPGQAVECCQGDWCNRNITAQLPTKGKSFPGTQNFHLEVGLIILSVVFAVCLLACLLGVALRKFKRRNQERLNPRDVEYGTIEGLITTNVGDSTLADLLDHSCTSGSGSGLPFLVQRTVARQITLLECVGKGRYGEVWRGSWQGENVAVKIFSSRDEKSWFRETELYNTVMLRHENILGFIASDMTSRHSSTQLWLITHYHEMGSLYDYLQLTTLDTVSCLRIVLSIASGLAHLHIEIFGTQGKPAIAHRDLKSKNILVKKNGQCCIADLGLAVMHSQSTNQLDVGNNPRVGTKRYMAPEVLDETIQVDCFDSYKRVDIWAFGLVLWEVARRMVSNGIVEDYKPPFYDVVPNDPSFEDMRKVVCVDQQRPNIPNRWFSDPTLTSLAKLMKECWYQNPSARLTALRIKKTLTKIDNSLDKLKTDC
The source made the active and inactive calls.
PARAMETER_MEASURED: Kd

Challenge: Give Activin receptor type-1 (Homo sapiens, UniProt Q04771) Kd for "CCN1CCN(Cc2ccc(Nc3ncc(F)c(-c4cc(F)c5nc(C)n(C(C)C)c5c4)n3)nc2)CC1"
Response given: > 30 µM (inactive)

* * *

SYSTEM: Casein kinase II subunit alpha' (Homo sapiens, UniProt P19784); further: in the data inactive means no Kd found up to 30 µM
Sequence (P19784 whole entry): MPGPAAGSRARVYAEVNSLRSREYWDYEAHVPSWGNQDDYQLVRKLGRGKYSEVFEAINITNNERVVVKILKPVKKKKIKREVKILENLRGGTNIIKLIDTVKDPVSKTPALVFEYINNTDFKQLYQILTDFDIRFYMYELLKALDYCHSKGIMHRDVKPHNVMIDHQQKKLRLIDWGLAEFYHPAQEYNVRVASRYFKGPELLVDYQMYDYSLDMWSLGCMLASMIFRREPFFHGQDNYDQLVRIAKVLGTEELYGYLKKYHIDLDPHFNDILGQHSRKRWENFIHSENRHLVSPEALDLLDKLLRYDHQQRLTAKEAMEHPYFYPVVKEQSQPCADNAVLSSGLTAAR
The source made the active and inactive calls.
Log the outcome using a class from yes (1) = active, no (0) = inactive

| COMPOUND | CLASS_NAME |
| --- | --- |
| O[C@H]1CC[C@H](Nc2ncc3nc(Nc4c(F)cc(F)cc4F)n([C@H]4CCOC4)c3n2)CC1 | no (0) |

Challenge: State the result this test recorded for COc1cc2ncnc(Nc3ccc(F)c(Cl)c3)c2cc1NC(=O)/C=C/CN1CCCCC1 [DACOMITINIB ANHYDROUS] .
Response given: no (0)

Challenge: State the result this test recorded for "CN(c1ncccc1CNc1nc(Nc2ccc3c(c2)CC(=O)N3)ncc1C(F)(F)F)S(C)(=O)=O" .
Response given: yes (1)

Challenge: State the result this test recorded for "COCCN1CCN(Cc2ccc(-c3n[nH]c4c3C(=O)c3c(NC(=O)NN5CCOCC5)cccc3-4)cc2)CC1" .
Response given: yes (1)

Challenge: State the result this test recorded for "COc1cc2ncnc3c2cc1OCCCCCN(C)Cc1ccc(Br)cc1N3" .
Response given: no (0)

Challenge: State the result this test recorded for "COc1cc2ncnc(Nc3ccc(O)cc3)c2cc1OC" .
Response given: no (0)

Challenge: State the result this test recorded for "CCOc1ccn(-c2ccc(F)cc2)c(=O)c1C(=O)Nc1ccc(Oc2ccnc(N)c2Cl)c(F)c1" .
Response given: no (0)

Challenge: State the result this test recorded for "CC(C)(O)CC(=O)NCCn1ccc2ncnc(Nc3ccc(Oc4cccc(C(F)(F)F)c4)c(Cl)c3)c21" .
Response given: no (0)
